experiment: Compounding study: dissolved carfilzomib versus time in 25% (w/v) SBE-β-CD (Example 5); format: physicochemical; conditions: CFZ-API suspension in 25% (w/v) SBE-β-CD solution, aqueous with cosolvent or surfactant or cyclodextrin, thermodynamic from solid; first 2 hours; read-out: solubilized concentration during compounding
metric name: solubility at 2 h (µg/mL)

{"compound": "CC(C)C[C@H](NC(=O)[C@H](CCc1ccccc1)NC(=O)CN1CCOCC1)C(=O)N[C@@H](Cc1ccccc1)C(=O)N[C@@H](CC(C)C)C(=O)[C@@]1(C)CO1 [carfilzomib]", "measurement unit": "µg/mL", "obs value": 4500}
